system: Human immunodeficiency virus 1; assay: Binding affinity to hexameric C-terminal His-tagged HIV1 NL4-3 capsid protein A14C/E45C/W184A/M185A mutant expressed in Escherichia coli BL21 codon plus (DE3)RIL assessed as association rate constant by SPR analysis
// reported Ka per item

COMPOUND | EXPERIMENTAL ENDPOINT | READING
Cc1[nH]c2ccccc2c1CC(=O)N[C@@H](Cc1ccccc1)C(=O)N(C)c1ccc2[nH]ncc2c1 | Ka | 4.37 10^5/M/s

Recorded Ka (compound Cc1[nH]c2ccccc2c1CC(=O)NC(Cc1ccccc1)C(=O)N(C)c1ccc2[nH]ncc2c1 (racemic) ): 2.75 10^5/M/s

Measured Ka of CN(C(=O)C(Cc1ccccc1)NC(=O)Cc1c[nH]c2c(N)cccc12)c1ccccc1 (racemic) : 5.62 10^5/M/s
